test target: c-Myc template DNA (c-myc quadruplex)
procedure details: Quadruplex binding / stop assay (Taq polymerase arrest, capillary electrophoresis)
applied conditions: read-out: Stop Data c-Myc μM; concentration at which 50% of the DNA was arrested (arrested:full-length 1:1)
endpoint name: IC50 (µM)

Reference set (5 entries):
>>> numeric_result("COc1ccc(CCNc2c(F)cc3c(=O)c(C(=O)NCCC4CCCN4C)cn4c3c2Oc2cc3ccccc3cc2-4)cc1OC (stereo not shown) [compound 310]")
1
>>> numeric_result("CC(=O)N[C@@H]1CCC(c2c(F)cc3c(=O)c(C(=O)NCCN4CCCC4)cn4c3c2Oc2cc3c(cc2-4)oc2ccccc23)C1 (stereo partly shown) [compound 370]")
0.75
>>> numeric_result("N[C@@H]1CCN(c2c(F)cc3c(=O)c(C(=O)NCCCN4CCOCC4)cn4c3c2Oc2cc3ccccc3cc2-4)C1 [compound 386]")
0.75
>>> numeric_result("CN(C)/C=N/CCCNC(=O)c1cn2c3c(c(N4CC[C@@H](N)C4)c(F)cc3c1=O)Oc1cc3ccccc3cc1-2 [compound 371]")
0.75
>>> numeric_result("O=C(NCCN1CCCC1)c1cn2c3c(c(NCCN4CCCC4)c(F)cc3c1=O)Oc1cc3c(cc1-2)oc1ccccc13 [compound 477]")
0.55

(a) CN1CCCC1CCNC(=O)c1cn2c3c(c(NCCN4CCCC4)ccc3c1=O)Oc1cc3ccccc3cc1-2 (stereo not shown) [compound 266]
(b) CN1CCCC1CCNC(=O)c1cn2c3c(c(NCCc4ccc(O)c(O)c4)c(F)cc3c1=O)Oc1cc3ccccc3cc1-2 (stereo not shown) [compound 381]
(c) CCN(CC)CCCC(C)NC(=O)c1cn2c3c(c(N4CCC(c5cnccn5)C4)ccc3c1=O)Oc1ccccc1-2 (stereo not shown) [compound 29]
List the 3 entries from lowest IC50 to highest IC50 value. Your reply should list the labels following the order given in the request.
b, a, c

(I) CN(C)c1cccc(CNc2c(F)cc3c(=O)c(C(=O)NCCC4CCCN4C)cn4c3c2Oc2cc3ccccc3cc2-4)c1 (stereo not shown) [compound 464]
(II) O=C(NCCCN1CCOCC1)c1cn2c3c(c(NCCCN4CCOCC4)c(F)cc3c1=O)Oc1cc3c(cc1-2)oc1ccccc13 [compound 143]
Of the two listed items, which has the higher IC50? First: I Second: II Answer by stating the label of the chosen item.
II
(II: 1.75 µM, I: 0.75 µM)

(a) CN1CCN(CCCNc2c(F)cc3c(=O)c(C(=O)NCCN4CCOCC4)cn4c3c2Oc2cc3c(cc2-4)oc2ccccc23)CC1 [compound 150]
(b) CCCCN(CCCC)CCCNc1c(F)cc2c(=O)c(C(=O)N3CCOCC3)cn3c2c1Oc1cc2ccccc2cc1-3 [compound 45]
(c) CN(C)CCCCNc1c(F)cc2c(=O)c(C(=O)O)cn3c4cc5oc6cc([N+](=O)[O-])ccc6[nH]c5cc4oc1c23 [compound 19]
Rank the 3 molecules: largest IC50 first, smallest last. Your reply should list the labels following the order given in the request.
b, a, c

(A) CN(C)CCCCNC(=O)c1cn2c3c(c(NCCCCN(C)C)c(F)cc3c1=O)Oc1cc3ccccc3cc1-2 [compound 126]
(B) CN(C)CCCCNC(=O)c1cn2c3c(c(NCCN4CCCC4)c(F)cc3c1=O)Oc1cc3ccccc3cc1-2 [compound 317]
(C) O=C(NCCCN1CCOCC1)c1cn2c3c(c(NCCN4CCOCC4)c(F)cc3c1=O)Oc1cc3ccccc3cc1-2 [compound 53]
List the 3 entries from lowest IC50 to highest IC50 value. Your reply should list the labels following the order given in the request.
B, A, C

(a) CN1CCCC1CCNC(=O)c1cn2c3c(c(N4CCC(N5CCCC5)CC4)c(F)cc3c1=O)Oc1cc3ccccc3cc1-2 (stereo not shown) [compound 434]
(b) O=C(NCCN1CCCC1)c1cn2c3c(c(NCCCN4CCOCC4)c(F)cc3c1=O)Oc1cc3c(O)ncnc3cc1-2 [compound 107]
(c) O=C(NCCN1CCOCC1)c1cn2c3c(c(NCCN4CCOCC4)c(F)cc3c1=O)Oc1cc3ccccc3cc1-2 [compound 54]
List the 3 entries from lowest IC50 to highest IC50 value. Your reply should list the labels following the order given in the request.
a, b, c
(a: 0.75 µM, b: 1.75 µM, c: 2.5 µM)

(P) COc1ccc(CCNc2c(F)cc3c(=O)c(C(=O)NCCC4CCCN4C)cn4c3c2Oc2cc3ccccc3cc2-4)cc1 (stereo not shown) [compound 286]
(Q) CC1(C)CC(NC(=O)c2cn3c4c(c(N5CCC(N)C5)c(F)cc4c2=O)Oc2cc4ccccc4cc2-3)CC(C)(C)N1 (stereo not shown) [compound 445]
Which entry shows the lesser value of IC50 here, P or Q ? Answer by stating the label of the chosen item.
Q
